biological target: T1, Human complement Factor D, mature (human, UniProt P00746 27-253); test: SPR (Biacore T200): Fab captured with anti-huFab kit, human Factor D injected, 25 C, 1:1 model;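 further: sensorgrams were corrected by subtracting a blank injection of running buffer before fitting kinetic and affinity constants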
T1 construct: In the TR-FRET assay the factor D was bought from Complement Technology; In the hemolysis assay it was the factor D of C1q-depleted human serum; also called human Factor D; hFD
T1 sequence (P00746 27-253): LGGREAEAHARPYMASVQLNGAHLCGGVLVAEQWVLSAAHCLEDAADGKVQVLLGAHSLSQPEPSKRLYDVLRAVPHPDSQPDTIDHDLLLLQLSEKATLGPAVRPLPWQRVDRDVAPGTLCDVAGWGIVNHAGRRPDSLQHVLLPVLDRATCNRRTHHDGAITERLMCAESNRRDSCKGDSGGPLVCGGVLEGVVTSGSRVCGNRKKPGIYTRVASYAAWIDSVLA
Experimental endpoint: pKd
Convention used: pKd is expressed as -log10 of the molar concentration.

>  <Binder>
AFD.v8 Fab (Fab, V domains shown, Variant of lampalizumab) VH: EVQLVQSGPELKKPGASVKVSCKASGYTFTNYGMNWVRQAPGQGLEWMGWINTYTGETTYAEDFKGRFVFSLDTSVSTAYLQISSLKAEDTAVYYCEREGGVNNWGQGTLVTVSS VL: DIQVTQSPSSLSASVGDRVTITCITSTSIESDMNWYQQKPGKVPKLLISGGNTLRPGVPSRFSGSGSGTDFTLTISSLQPEDVATYYCLQSDSLPYTFGQGTKVEIKR

>  <pKd>
10.98

$$$$
>  <Binder>
hu20D12.v2.7 Fab (Fab, V domains shown) VH: EVQLVQSGAEVKKPGASVKVSCKASGYTFTSYYMYWVRQAPGQGLEWIGEINPTSGGTNFNEKFKSRATLTVDTSTSTAYLELSSLRSEDTAVYYCAREGGFAYWGQGTLVTVSS VL: DIQMTQSPSSLSASVGDRVTITCKASQNVDTDVAWFQQKPGKAPKGLIKSASSRYSGVPSRFSGSGSGTDFTLTISSLQPEDFATYYCQQYNNYPLTFGQGTKVEIKR

>  <pKd>
10.31

$$$$

Consider the additional binder presented here.
Record request: pKd value, item hu20D12.v2.6 Fab (Fab, V domains shown) VH: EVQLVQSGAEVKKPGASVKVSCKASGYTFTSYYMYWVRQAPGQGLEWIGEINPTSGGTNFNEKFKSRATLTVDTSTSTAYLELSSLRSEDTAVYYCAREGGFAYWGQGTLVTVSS VL: DIQMTQSPSSLSASVGDRVTITCKASQNVDTDVAWFQQKPGKAPKGLISSASSRYSGVPSRFSGSGSGTDFTLTISSLQPEDFATYYCQQYNNYPLTFGQGTKVEIKR
9.84
